Each record here notes measured AC50.
biological target: UniProtKB Q9Y6A5; assay: inhibition of ARNT PAS-B/TACC3 complex formation – biochemical, AlphaScreen, cherry-picked samples, confirmation (AID 651703); conditions: AlphaScreen His-ARNT PAS-B / GST-TACC3 binding, luminescence;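 note: TACC3 partner is the GST-tagged E629A mutant dimer; hits lower the signal meaning they disrupt ARNT binding to TACC3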

Please review the entries below; each comes with its answer.
                                   compound       test_system  experimental_result
0  c1ccc(-c2nnc(-c3ccccn3)nc2N2CCC(N3CCOCC3)CC2)cc1  UniProtKB Q9Y6A5             < 0.5 µM
1      O=C(Nc1nnc(-c2ccccn2)o1)c1cccc(Cl)c1  UniProtKB Q9Y6A5              30.2 µM
2  C/C=C/c1ccc([C@H]2[C@@H](CO)N(Cc3ccccn3)[C@H]2CNC(C)=O)cc1  UniProtKB Q9Y6A5              45.9 µM
3  O=S(=O)(N[C@H]1CC[C@@H](CCn2cc(-c3ccccn3)nn2)O[C@H]1CO)c1cccc(F)c1  UniProtKB Q9Y6A5              19.1 µM
4         Nc1nc(-c2ccccn2)nc(N)c1Cc1ccccc1F  UniProtKB Q9Y6A5              3.39 µM
5        Fc1ccc(-c2ccc(CNCc3ccccn3)o2)cc1Cl  UniProtKB Q9Y6A5              17.5 µM
6  CC(C)C(=O)NC(c1cccc([N+](=O)[O-])c1)c1ccc2cccnc2c1O (stereo not given)  UniProtKB Q9Y6A5              3.82 µM
7  O=C(N[C@@H]1CC[C@@H](CCn2cc(-c3ccccn3)nn2)O[C@H]1CO)c1ccncc1  UniProtKB Q9Y6A5              16.7 µM

Q) Which AC50 reading was recorded for the compound CC1CN(Cc2ccc(O)c3ncccc23)CC(C)O1 (stereo not given) ?
A) 2.59 µM

Q) Fill in the blank: the reported AC50 of O=C(CSc1ccc2nnc(-c3ccccn3)n2n1)Nc1ccc2c(c1)OCO2 is ____.
A) 46.5 µM

The measurements presented in this section are drawn from PubChem BioAssay AID651703.
